TEST_DETAILS: LM CLint (microsomal stability), mouse
Type: in vitro ADME
CONDITIONS_USED: microsomes, 1 μm, read-out: CLint Microsomes, Mouse (m)
VALUE_KIND: microsomal CLint at 1 µM (µL/min/mg)
API: value field is a number in µL/min/mg; no unit string.

Illustrative cases are given below, each with its answer.
{"COMPOUND": "Cc1cnc2nc(C3CC3)c(C(=O)NCc3ccc(-c4nc5n(n4)CCN(S(=O)(=O)C(F)(F)F)C5)cc3)n2c1 [Compound 42]", "microsomal CLint at 1 µM, µL/min/mg": 20.4}
{"COMPOUND": "Cc1cnc2nc(C3CC3)c(C(=O)NCc3ccc(-c4cn5c(n4)CN(S(=O)(=O)C(F)(F)F)CC5)cc3)n2c1 [Compound 94]", "microsomal CLint at 1 µM, µL/min/mg": 18.1}

Dear colleague, I am looking for the recorded microsomal CLint at 1 µM of the following compound: Cc1cnc2nc(C3CC3)c(C(=O)NCc3ccc(-c4nc5n(n4)CCN(S(=O)(=O)C(F)(F)F)C5)c(C)c3)n2c1 [Compound 98]
26.9

* * *

TEST_DETAILS: Mitochondrial toxicity (Glu/Gal) assay
Type: cell-based
CONDITIONS_USED: mitotoxicity score, Glu/Gal assay

{"MOLECULE": "Cc1cnc2nc(C3CC3)c(C(=O)NCc3ccc(-c4cc5n(n4)CCN(S(=O)(=O)CC(C)C)C5)cc3)n2c1 [Compound 108]", "Score": "[x]0"}
{"MOLECULE": "CCc1nc2ccc(Cl)cn2c1C(=O)NCc1ccc(-c2nc3n(n2)CCN(S(=O)(=O)C(F)(F)F)C3)c(F)c1 [Compound 3]", "Score": "[x]1"}
{"MOLECULE": "Cc1ccc2nc(C)c(C(=O)NCc3ccc(-c4nc5n(n4)CCN(S(=O)(=O)C(F)(F)F)C5)cc3)n2c1 [Compound 34]", "Score": "[x]0"}
{"MOLECULE": "O=C(NCc1ccc(-c2nc3n(n2)CCN(S(=O)(=O)C(F)(F)F)C3)cc1)c1c(C2CC2)nc2ncc(Cl)cn12 [Compound 103]", "Score": "[x]0"}
